target: P2X7 receptor (Homo sapiens, UniProt Q99572); construct: host or cells: THP-1 cells differentiated with LPS and IFN-γ; assay: IL-1β release assay in differentiated THP-1 cells stimulated with BzATP (Example 9); type: cell-based; design: dose or concentration left out as unconfirmed; details: THP-1; read-out: IL-1β % Inhib.
Sequence (Q99572 whole entry): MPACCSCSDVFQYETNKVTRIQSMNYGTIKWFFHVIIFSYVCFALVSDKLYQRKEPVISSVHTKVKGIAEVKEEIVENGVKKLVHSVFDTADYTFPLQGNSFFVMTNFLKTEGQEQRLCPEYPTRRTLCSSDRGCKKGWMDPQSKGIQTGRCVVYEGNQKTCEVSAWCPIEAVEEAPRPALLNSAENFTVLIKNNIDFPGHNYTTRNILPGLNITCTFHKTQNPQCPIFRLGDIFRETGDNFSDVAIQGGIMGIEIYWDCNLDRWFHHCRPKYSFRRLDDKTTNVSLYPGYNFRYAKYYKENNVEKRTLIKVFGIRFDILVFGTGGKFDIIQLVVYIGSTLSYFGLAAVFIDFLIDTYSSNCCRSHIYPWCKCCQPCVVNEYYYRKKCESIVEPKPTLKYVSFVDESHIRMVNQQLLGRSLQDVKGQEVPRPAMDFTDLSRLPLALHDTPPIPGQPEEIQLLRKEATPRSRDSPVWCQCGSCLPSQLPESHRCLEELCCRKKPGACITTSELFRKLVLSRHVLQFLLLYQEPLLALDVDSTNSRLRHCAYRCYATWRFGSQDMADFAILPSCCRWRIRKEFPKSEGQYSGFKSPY
# Lookup of reported inhibition keyed by entry
MEASURED_ATTRIBUTE: inhibition

COMPOUND_STRUCTURE_STRING: COc1c(C)cc(C(=O)Nc2cccc3c(=O)n(Cc4ccc(OC(F)(F)F)cc4)ccc23)cc1C
RECORDED_VALUE: 26 to 50%
--
COMPOUND_STRUCTURE_STRING: COc1ccccc1CCC(=O)Nc1cccc2c(=O)n(Cc3ccc(OC(F)(F)F)cc3)ccc12
RECORDED_VALUE: 0 to 25%
--
COMPOUND_STRUCTURE_STRING: O=C(Cc1ccccc1F)Nc1cccc2c(=O)n(Cc3cccnc3)ccc12
RECORDED_VALUE: 26 to 50%
--
COMPOUND_STRUCTURE_STRING: O=C(CCc1ccc(Cl)cc1)Nc1cccc2c(=O)n(CCCN3CCCC3=O)ccc12
RECORDED_VALUE: 26 to 50%

----------
Attribute: inhibition at 0.1 µM
molecular target: P2X7 receptor (Homo sapiens, UniProt Q99572); construct: host or cells: THP-1 cells differentiated with LPS and IFN-γ; assay: IL-1β release assay in differentiated THP-1 cells stimulated with BzATP (Example 9); format: cell-based; conditions: 0.1 μM compound; differentiated THP-1 cells, BzATP 250 uM; '*' class symbols; read-out: IL-1β % Inhib. (asterisk classes, 0.1 μM)

COMPOUND: COc1ccc(C(=O)Nc2cccc3c(=O)n(CCN4CCOCC4)ccc23)c(C)c1 [Compound 1039]
TARGET: P2X7 receptor (Homo sapiens, UniProt Q99572)
inhibition at 0.1 µM: 0 to 25%
//
COMPOUND: COCCn1ccc2c(NC(=O)c3ccc(-c4ccccc4)o3)cccc2c1=O [Compound 1063]
TARGET: P2X7 receptor (Homo sapiens, UniProt Q99572)
inhibition at 0.1 µM: 0 to 25%
//
COMPOUND: COc1ccccc1CCC(=O)Nc1cccc2c(=O)n(CCN(C)C)ccc12 [Compound 1149]
TARGET: P2X7 receptor (Homo sapiens, UniProt Q99572)
inhibition at 0.1 µM: 0 to 25%
//
COMPOUND: COCCn1ccc2c(NC(=O)CCc3ccccc3C)cccc2c1=O [Compound 1062]
TARGET: P2X7 receptor (Homo sapiens, UniProt Q99572)
inhibition at 0.1 µM: 26 to 50%
//
COMPOUND: COc1cc(OC)cc(C(=O)Nc2cccc3c(=O)n(CCN4CCOCC4)ccc23)c1 [Compound 1196]
TARGET: P2X7 receptor (Homo sapiens, UniProt Q99572)
inhibition at 0.1 µM: 0 to 25%
//
COMPOUND: O=C(Nc1cccc2c(=O)n(CC3CCOCC3)ccc12)c1ccc(-c2ccccc2)o1 [Compound 1026]
TARGET: P2X7 receptor (Homo sapiens, UniProt Q99572)
inhibition at 0.1 µM: 26 to 50%
//
COMPOUND: COCCn1ccc2c(NC(=O)CCc3cccc(OC)c3)cccc2c1=O [Compound 1064]
TARGET: P2X7 receptor (Homo sapiens, UniProt Q99572)
inhibition at 0.1 µM: 0 to 25%

The values you see were collected from patent US8546579B2.
